Molecular target: FLT3 (Homo sapiens, UniProt P36888)
Sequence (P36888 27-993): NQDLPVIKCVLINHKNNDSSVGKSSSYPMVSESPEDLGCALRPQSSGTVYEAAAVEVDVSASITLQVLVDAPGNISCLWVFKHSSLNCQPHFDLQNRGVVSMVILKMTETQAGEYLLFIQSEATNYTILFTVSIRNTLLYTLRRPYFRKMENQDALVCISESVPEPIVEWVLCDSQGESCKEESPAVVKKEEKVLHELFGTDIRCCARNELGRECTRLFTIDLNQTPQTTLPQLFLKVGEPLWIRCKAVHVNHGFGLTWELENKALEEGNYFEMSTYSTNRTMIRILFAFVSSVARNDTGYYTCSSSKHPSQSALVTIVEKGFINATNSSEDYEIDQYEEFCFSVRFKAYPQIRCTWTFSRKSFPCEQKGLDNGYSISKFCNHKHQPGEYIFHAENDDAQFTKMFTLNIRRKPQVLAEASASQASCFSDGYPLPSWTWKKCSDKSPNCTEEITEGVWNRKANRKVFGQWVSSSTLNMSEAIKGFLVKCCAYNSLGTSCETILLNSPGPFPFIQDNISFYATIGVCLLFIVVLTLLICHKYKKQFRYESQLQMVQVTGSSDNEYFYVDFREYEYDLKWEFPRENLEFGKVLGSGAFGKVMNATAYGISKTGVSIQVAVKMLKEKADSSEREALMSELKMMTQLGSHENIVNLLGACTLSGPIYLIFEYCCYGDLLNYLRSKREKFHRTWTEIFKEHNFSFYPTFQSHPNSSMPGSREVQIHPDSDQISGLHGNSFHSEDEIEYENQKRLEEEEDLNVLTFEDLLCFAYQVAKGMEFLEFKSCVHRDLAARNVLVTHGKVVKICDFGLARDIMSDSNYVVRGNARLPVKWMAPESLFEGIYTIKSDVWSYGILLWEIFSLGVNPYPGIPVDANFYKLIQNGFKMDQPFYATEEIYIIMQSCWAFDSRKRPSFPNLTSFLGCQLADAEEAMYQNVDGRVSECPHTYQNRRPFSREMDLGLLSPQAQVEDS
pKi: −log10 of the molar value. Where a name gives a salt, the structure may show the parent alone.
Observed Property: pKi

CCCc1cc2c(N[C@H]3CC[C@H](O)CC3)c(-c3ccc(CN4CCCC4)cn3)cnc2[nH]1 ... > 7.00
CCCc1cc2c(N[C@H]3CC[C@H](N)CC3)c(-c3ccc(N)cn3)cnc2[nH]1 ... > 7.00
CCCc1cc2c(N[C@H]3CC[C@H](N)CC3)c(-c3ccc(S(=O)(=O)N4CCOCC4)cn3)cnc2[nH]1 ... > 7.00
CCC(C)c1cc2c(N[C@H]3CC[C@H](O)CC3)c(C(=O)NC3CCN(C4=NCCCN4)CC3)cnc2[nH]1 (stereo partly drawn) ... 6.00 to 7.00
CCCc1cc2c(N[C@H]3CC[C@H](N)CC3)c(-c3cc(NC)ncn3)cnc2[nH]1 [Compound 111, hydrochloride] ... > 7.00
CC(O)c1cc2c(N[C@H]3CC[C@H](N)CC3)c(C(=O)Nc3ccc(F)cc3)cnc2[nH]1 (stereo partly drawn) ... 6.00 to 7.00
CCCc1cc2c(N[C@H]3CC[C@H](N)CC3)c(-c3cc(NC(C)C)ncn3)cnc2[nH]1 ... > 7.00
N[C@H]1CC[C@H](Nc2c(C(=O)Nc3ccc(F)cc3)cnc3[nH]c(C(F)(F)F)cc23)CC1 [Compound 135, hydrochloride] ... 6.00 to 7.00
CCCC(O)c1cc2c(N[C@H]3CC[C@H](N)CC3)c(Br)cnc2[nH]1 (stereo partly drawn) ... 5.00 to 6.00
CCCc1cc2c(N[C@H]3CC[C@H](N)CC3)c(-c3cc(N)ncn3)cnc2[nH]1 ... > 7.00
CCCc1cc2c(N[C@H]3CC[C@H](O)CC3)c(C(=O)NCc3ccc(-n4ccnc4)cc3)cnc2[nH]1 ... > 7.00
COCC(C)c1cc2c(N[C@H]3CC[C@H](N)CC3)c(C(=O)Nc3ccc(F)cc3)cnc2[nH]1 (stereo partly drawn) ... 5.00 to 6.00
N[C@H]1CC[C@H](Nc2c(C(=O)Nc3ccc(F)cc3)cnc3[nH]c(C4CCC4)cc23)CC1 [Compound 138, hydrochloride] ... > 7.00
CCc1cc2c(N[C@H]3CC[C@H](N)CC3)c(C(=O)Nc3ccc(F)cc3)cnc2[nH]1 ... > 7.00
CC(C)c1cc2c(N[C@H]3CC[C@H](N)CC3)c(C(=O)NCc3ccc(-n4ccnc4)cc3)cnc2[nH]1 ... > 7.00

----------
Target: UniProt:P36888
Sequence (P36888 27-993): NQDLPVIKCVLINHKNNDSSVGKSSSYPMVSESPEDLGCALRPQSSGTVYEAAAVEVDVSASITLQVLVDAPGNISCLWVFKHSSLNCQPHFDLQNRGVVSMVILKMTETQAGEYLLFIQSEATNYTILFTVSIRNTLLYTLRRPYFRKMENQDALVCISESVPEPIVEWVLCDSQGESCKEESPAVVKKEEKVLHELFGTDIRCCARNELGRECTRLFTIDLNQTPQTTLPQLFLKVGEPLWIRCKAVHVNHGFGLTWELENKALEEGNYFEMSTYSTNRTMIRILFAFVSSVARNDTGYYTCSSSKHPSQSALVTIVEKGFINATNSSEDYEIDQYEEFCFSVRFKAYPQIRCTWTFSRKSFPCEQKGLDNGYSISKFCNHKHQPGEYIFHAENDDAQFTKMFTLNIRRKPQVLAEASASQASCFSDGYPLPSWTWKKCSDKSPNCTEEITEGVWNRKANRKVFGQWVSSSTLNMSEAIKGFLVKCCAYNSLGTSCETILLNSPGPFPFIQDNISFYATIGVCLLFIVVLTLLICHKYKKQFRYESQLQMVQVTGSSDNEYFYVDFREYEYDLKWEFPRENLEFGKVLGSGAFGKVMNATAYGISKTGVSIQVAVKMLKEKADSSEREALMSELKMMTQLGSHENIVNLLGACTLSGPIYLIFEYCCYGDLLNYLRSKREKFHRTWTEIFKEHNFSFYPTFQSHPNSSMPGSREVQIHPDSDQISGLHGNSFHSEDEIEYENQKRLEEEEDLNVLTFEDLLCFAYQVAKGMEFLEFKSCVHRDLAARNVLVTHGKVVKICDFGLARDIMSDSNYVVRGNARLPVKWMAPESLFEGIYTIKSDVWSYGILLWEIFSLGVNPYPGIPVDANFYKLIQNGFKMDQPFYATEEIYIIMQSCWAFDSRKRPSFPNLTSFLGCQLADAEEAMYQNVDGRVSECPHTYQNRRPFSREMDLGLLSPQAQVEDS
pKi: −log10 of the molar value. Counter-ions that a name gives are not always drawn.
Observed Property: pKi

CCC(C)c1cc2c(N[C@H]3CC[C@H](O)CC3)c(C(=O)NC3CCN(c4ncccn4)CC3)cnc2[nH]1 (stereo partly shown) [Compound 157] ... < 5.00
CCCc1cc2c(N[C@H]3CC[C@H](N)CC3)c(C(=O)NC3CCOCC3)cnc2[nH]1 [Compound 124] ... 6.00 to 7.00
CCc1cc2c(N[C@H]3CC[C@H](N)CC3)c(C(=O)NC3CCN(c4ncccn4)CC3)cnc2[nH]1 [Compound 132] ... > 7.00
CCCc1cc2c(N[C@H]3CC[C@H](N)CC3)c(C(=O)Nc3ccc(F)cc3)cnc2[nH]1 [Compound 100, hydrochloride] ... > 7.00
COC(C)c1cc2c(N[C@H]3CC[C@H](N)CC3)c(C(=O)Nc3ccc(F)cc3)cnc2[nH]1 (stereo partly shown) [Compound 145] ... 5.00 to 6.00
CCCC(O)c1cc2c(N[C@H]3CC[C@H](N)CC3)c(C(=O)Nc3ccc(F)cc3)cnc2[nH]1 (stereo partly shown) [Compound 154] ... < 5.00
CCCc1cc2c(N[C@H]3CC[C@H](O)CC3)c(-c3ccc(CN4CCOCC4)cc3)cnc2[nH]1 [Compound 106, hydrochloride] ... 6.00 to 7.00

----------
Reported values: Ki for TYRO3 (Homo sapiens), one per item.
Counter-ions that a name gives are not always drawn.
Observed Property: Ki

CCCc1cc2c(N[C@H]3CC[C@H](N)CC3)c(-c3cnn(C)c3)cnc2[nH]1 [Compound 108, hydrochloride] ... < 100 nM
CC(O)c1cc2c(N[C@H]3CC[C@H](N)CC3)c(C(=O)Nc3ccc(F)cc3)cnc2[nH]1 (some centres unmarked) [Compound 148] ... 100 to 1000 nM
Cc1cc2c(N[C@H]3CC[C@H](N)CC3)c(C(=O)Nc3ccc(F)cc3)cnc2[nH]1 [Compound 103] ... 1000 to 10000 nM
CCCc1cc2c(N[C@H]3CC[C@H](N)CC3)c(C(=O)NC)cnc2[nH]1 [Compound 139] ... < 100 nM
N[C@H]1CC[C@H](Nc2c(C(=O)Nc3ccc(F)cc3)cnc3[nH]c(C4CCC4)cc23)CC1 [Compound 138, hydrochloride] ... < 100 nM
CCC[C@@H](C)c1cc2c(N[C@H]3CC[C@H](N)CC3)c(C(=O)Nc3ccc(F)cc3)cnc2[nH]1 [Compound 150] ... < 100 nM
CCCc1cc2c(N[C@H]3CC[C@H](N)CC3)c(Br)cnc2[nH]1 [Compound 142] ... < 100 nM
CCCc1cc2c(N[C@H]3CC[C@H](O)CC3)c(C(=O)Nc3ccc(F)cc3)cnc2[nH]1 [Compound 101] ... 100 to 1000 nM
